Attribution: PubChem BioAssay

- targetEntity: Receptor tyrosine-protein kinase erbB-2 (Homo sapiens)
- methodDescription: reducers of endogenous Her2 protein level, primary screen, SKBR3 breast tumor cells, AlphaScreen, ATP viability (AID 461);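 further: lower value means less Her2 protein in the cells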
- measurementContext: 18-24 h, at 10 µM, hits give low values
measurementKind: Her2 level (%)
Provide only the numeric value, understood in %.

Data request: Fill in the recorded Her2 level for this compound, with Receptor tyrosine-protein kinase erbB-2 (Homo sapiens) as test system: CCOC(=O)c1cccc(NC(=O)Cn2cnc3c2c(=O)n(C)c(=O)n3C)c1
Data returned: 91.5

Data request: Fill in the recorded Her2 level for this compound, with Receptor tyrosine-protein kinase erbB-2 (Homo sapiens) as test system: CN(C)S(=O)(=O)c1ccc(C(=O)Nc2ccccc2C(=O)O)cc1
Data returned: 88.5

Data request: Fill in the recorded Her2 level for this compound, with Receptor tyrosine-protein kinase erbB-2 (Homo sapiens) as test system: CC(C)Cn1c(CN2CCCCC2C)nc2c1c(=O)n(C)c(=O)n2C (centres undefined)
Data returned: 91.5

Data request: Fill in the recorded Her2 level for this compound, with Receptor tyrosine-protein kinase erbB-2 (Homo sapiens) as test system: CCn1cc(C(=O)O)c(=O)c2cc(F)c(N3CCN(C(=O)Nc4ccccc4)CC3)cc21
Data returned: 92

Data request: Fill in the recorded Her2 level for this compound, with Receptor tyrosine-protein kinase erbB-2 (Homo sapiens) as test system: COc1ccc(-n2c(COc3cccc(C)c3)nnc2SCC(=O)NCc2ccco2)cc1
Data returned: 91

Data request: Fill in the recorded Her2 level for this compound, with Receptor tyrosine-protein kinase erbB-2 (Homo sapiens) as test system: O=C(Nc1ccc(F)cc1F)NC1CC(=O)N(Cc2ccccc2)C1 (centres undefined)
Data returned: 89.5

Data request: Fill in the recorded Her2 level for this compound, with Receptor tyrosine-protein kinase erbB-2 (Homo sapiens) as test system: Cc1cc(C(=O)NCCN2CCN(c3cccc(Cl)c3)CC2)n(-c2ccccc2)n1
Data returned: 91.5

Data request: Fill in the recorded Her2 level for this compound, with Receptor tyrosine-protein kinase erbB-2 (Homo sapiens) as test system: Cc1cc(-c2ccccc2)c(C#N)c(N)n1
Data returned: 91

Data request: Fill in the recorded Her2 level for this compound, with Receptor tyrosine-protein kinase erbB-2 (Homo sapiens) as test system: CC(=O)NC(=O)NC1CSCC1OC(C)=O (centres undefined)
Data returned: 89
